Listing: Percent Effect of selected compounds
# Test system: Trypanosoma cruzi
# protocol-text: Trypanosoma cruzi phosphomannomutase and mannose-1-phosphate guanylyltransferase assay
# Assay type: functional
# Parameters: scale not given: direction of the effect not stated beside the values
# condition-details: 10 µM
# number only, unit % dropped from output

CC(C)[C@H](NC(=O)NC1CCS(=O)(=O)C1)C(=O)Nc1cccnc1 (some centres not stated) | -3.34
CC(C)n1ncc2c1NC(=O)CSC2C(C)(C)C (configuration not stated) | 3.14
O=C(c1cccc(CNCC2CNc3ccnn3C2)c1)N1CCCC1 (configuration not stated) | 4.41
Cc1nc(C)c(C(=O)NCCNC(=O)Cc2cccc(F)c2)s1 | 0.464

Name the reported Percent Effect value associated with the compound CC(C)C1CN(c2ncccn2)CCC(=O)N1Cc1ccc(F)cc1 (configuration not stated)
-0.291

###

Listing: Percent Effect of selected molecules
# study-target: AMP-activated protein kinase, AMPK (Homo sapiens) (UniProt P54646+O43741+P54619+Q9UGJ0+Q9Y478+Q13131+Q9UGI9)
# protocol-text: AMP-dependent Kinase enzyme assay. An in vitro enzyme assay that detects ADP turnover that is directly proportional to AMPK activity. This uses naive AMPK that is activated during the assay with MK-8722
# Assay type: functional
# Parameters: scale not given: direction of the effect not stated beside the values
# condition-details: 30 µM
# number only, unit % dropped from output

CCCC(C)(C)NC(=O)c1ccc(CC2CC(=O)NC2=O)cc1 (stereo unspecified) | 6.89

Name the reported Percent Effect value associated with the molecule CCN(Cc1ccc2c(c1)OCO2)C(=O)NC(C)Cn1cccn1 (stereo unspecified)
2.96

Name the reported Percent Effect value associated with the molecule Cc1ccc2nc(C3CCN(CCO)CC3)nn2c1
6.44

###

# study-target: Protein translocase subunit SecA (Escherichia coli (strain K12))
# protocol-text: Assay to Identify E. coli SecA ATPase Inhibitors
# Assay type: functional
# Design: scale not given: direction of the effect not stated beside the values
# condition-details: 30 µM
Potency and affinity values are given separately.
Listing: Percent Effect of selected compounds
# number only, unit % dropped from output

Cc1nc(N2CCN(C(=O)c3ccsc3)CC2)c2cnn(C)c2n1 | -3.6
Cc1ccc(CN(Cc2ccccn2)C2CC(C)(C)NC(C)(C)C2)s1 | -1.39
Cc1nc(-c2ccsc2)ccc1C(=O)NCCC(=O)N1CCCC1 | -5.91
N#Cc1ccc(C(=O)N2CC[C@H]3[C@@H]2CCC(=O)N3c2ccccc2)cc1 | 1.09
O=C(CCC(=O)N1CCCC1c1cccs1)N1CCc2sccc2C1 (stereo unspecified) | 1.64

Shifting focus to the compound that follows.
Name the reported Percent Effect value associated with the compound O=C1CC2(CCN(S(=O)(=O)C3CC3)C2)CN1c1cncnc1 (stereo unspecified)
1.95

###

# study-target: Sialic acid-binding Ig-like lectin 9 (Homo sapiens) (UniProt Q9Y336)
# Sequence (Q9Y336 whole entry): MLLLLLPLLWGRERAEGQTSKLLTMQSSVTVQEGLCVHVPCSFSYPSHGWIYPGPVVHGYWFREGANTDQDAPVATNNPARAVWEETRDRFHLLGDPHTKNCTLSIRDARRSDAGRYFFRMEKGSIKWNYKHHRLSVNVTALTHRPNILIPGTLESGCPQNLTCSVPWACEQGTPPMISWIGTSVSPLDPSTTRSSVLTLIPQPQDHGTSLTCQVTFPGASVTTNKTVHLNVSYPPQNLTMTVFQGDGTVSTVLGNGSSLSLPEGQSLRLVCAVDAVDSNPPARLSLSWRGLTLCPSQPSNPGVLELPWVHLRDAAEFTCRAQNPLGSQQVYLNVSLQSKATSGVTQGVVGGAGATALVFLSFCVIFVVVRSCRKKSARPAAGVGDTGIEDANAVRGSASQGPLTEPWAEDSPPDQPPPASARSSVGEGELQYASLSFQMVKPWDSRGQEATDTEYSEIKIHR
# protocol-text: Hs-Siglec9 ALPHAscreen SOP 20170721
# Parameters: scale not given: direction of the effect not stated beside the values
# condition-details: 10 µM
outcome-measure: Percent Effect (%)
# number only, unit % dropped from output

O=C(c1ccco1)N1CC[C@H]2[C@H]1CCN2CC1CCOCC1 | -3.38
c1cnc(-c2cnc(N3CCSCC3)nc2C2CC2)cn1 | 6.16
Cn1cc(CN2C[C@@H]3COC[C@@H](C(=O)N4CCCCO4)[C@@H]3C2)cn1 | 1.72

Name the reported Percent Effect value associated with the compound Cn1ccnc1CN1CCN(Cc2ccccc2C#N)CC1
6.65

Name the reported Percent Effect value associated with the compound Cc1cc(NC(=O)CN2CCN(c3nccs3)C(C)C2)n(C)n1 (centres undefined)
12

Name the reported Percent Effect value associated with the compound COCC(=O)N1CCCC2(CCN(c3ccsc3)C2=O)C1 (centres undefined)
-0.603

Name the reported Percent Effect value associated with the compound Cc1ccc(CN2CCCC3(CCN(S(C)(=O)=O)C3)C2)o1 (centres undefined)
5.08

Name the reported Percent Effect value associated with the compound c1coc(-c2noc(CN3CC(n4cccn4)C3)n2)c1
-4.91

Name the reported Percent Effect value associated with the compound Cc1nc(C)n(C2CCCN(C(=O)CCc3ccncc3)C2)n1 (centres undefined)
8.78

Name the reported Percent Effect value associated with the compound CCCc1nc(NCCCO)c2c(n1)c(C)nn2CC
11.8

Name the reported Percent Effect value associated with the compound O=C(c1ccc2[nH]ccc2c1)N1CCn2cnc(COCC3CC3)c2C1
-2.14

Name the reported Percent Effect value associated with the compound CCn1c(C)nnc1CN(C)C1CCN(CCc2ccncc2)C1 (centres undefined)
1.88

Name the reported Percent Effect value associated with the compound Cn1ccnc1CN1CCN(c2ccc(C#N)cn2)CC1
9.32

Name the reported Percent Effect value associated with the compound CCN(c1ccc(C(=O)N2CCCC2)cc1)S(=O)(=O)CC
-5.1

Name the reported Percent Effect value associated with the compound CN(C)CC1CN(C(=O)NCc2ccccc2)Cc2nccn2C1 (centres undefined)
4.01

Name the reported Percent Effect value associated with the compound CCn1ccnc1CN(C)C1CCCN(CCc2ccccc2)C1 (centres undefined)
4.16

Name the reported Percent Effect value associated with the compound Cc1oc(-c2nc(C#N)c(N(C)C)o2)cc1S(=O)(=O)N1CCCC1
8.99

Name the reported Percent Effect value associated with the compound OCCn1cc(CN2CCN(CCOc3ccccc3F)CC2)cn1
3.17

Name the reported Percent Effect value associated with the compound CC(=O)NCC(=O)N1C[C@H](OCc2cccnc2)[C@H]2COC[C@H]21
2.9
